System: HB3
Experiment: qHTS profiling for inhibitors of Plasmodium falciparum proliferation (AID 504749); further: nearly all actives have a fitted effect of over 60% in size
Conditions: P. falciparum in erythrocytes, SYBR Green DNA, 72 h; series mostly up to 28.7 µM
Inconclusive results are not listed. The source made the active and inactive calls. The call rests on the fitted dose curve; in most records, active means well fitted inhibition curve with a large enough effect; inconclusive means small, poorly fitted or top-dose-only effect; inactive means flat fitted curve, though single readings scatter.
Labels: active, inactive

                                   compound     group
0              COc1ccc(C(=O)c2ccccc2)c(O)c1    active
1  O=C(CCN1CCN2CCCC2C1)N1c2ccccc2Sc2ccc(Cl)cc21 (configuration not stated)  inactive
2                  O=C(O)CCc1nc2ccccc2[nH]1    active
3        O=C(Nc1ncc([N+](=O)[O-])s1)c1cccs1  inactive
4                       CCOC(=O)c1ccc(N)cc1  inactive
5                    CCCCCCCC/C=C\CCCCCCCCN  inactive
6                         CCCCCCCCCCCCCCCCO  inactive

---

Test system: ATS189
Assay: qHTS profiling for inhibitors of Plasmodium falciparum proliferation (AID 504749); further: nearly all actives have a fitted effect of over 60% in size
Conditions: P. falciparum in erythrocytes, SYBR Green DNA, 72 h; series mostly up to 28.7 µM
Records with an inconclusive call do not appear. Active and inactive are the calls of the source. Calls follow the shape of the dose curve; as a rule, active = well fitted inhibition curve with a large enough effect; inconclusive = small, poorly fitted or top-dose-only effect; inactive = flat fitted curve, though single readings scatter.
Possible outcomes: active, inactive

                                   molecule     group
0  C[C@@H](O)[C@H]1C(=O)N2C(C(=O)O)=C(S[C@@H]3CN[C@H](CNS(N)(=O)=O)C3)[C@H](C)[C@H]12  inactive
1  CC(C)NCC(O)c1ccc2ccccc2c1 (stereo unspecified)    active
2        CCOC(=O)C(C#N)=C(c1ccccc1)c1ccccc1  inactive
3  FC(F)(F)C(F)(F)C(F)(F)C(F)(F)C(F)(F)C(F)(F)C(F)(F)C(F)(F)Br  inactive
4       CC(C)(C)NC[C@H](O)COc1nsnc1N1CCOCC1    active
5                  CCCCCCCCCCCCCC(=O)OC(C)C  inactive

---

Molecular target: Cytochrome P450 2C9 (Homo sapiens) (UniProt P11712)
Sequence (P11712 whole entry, looked up): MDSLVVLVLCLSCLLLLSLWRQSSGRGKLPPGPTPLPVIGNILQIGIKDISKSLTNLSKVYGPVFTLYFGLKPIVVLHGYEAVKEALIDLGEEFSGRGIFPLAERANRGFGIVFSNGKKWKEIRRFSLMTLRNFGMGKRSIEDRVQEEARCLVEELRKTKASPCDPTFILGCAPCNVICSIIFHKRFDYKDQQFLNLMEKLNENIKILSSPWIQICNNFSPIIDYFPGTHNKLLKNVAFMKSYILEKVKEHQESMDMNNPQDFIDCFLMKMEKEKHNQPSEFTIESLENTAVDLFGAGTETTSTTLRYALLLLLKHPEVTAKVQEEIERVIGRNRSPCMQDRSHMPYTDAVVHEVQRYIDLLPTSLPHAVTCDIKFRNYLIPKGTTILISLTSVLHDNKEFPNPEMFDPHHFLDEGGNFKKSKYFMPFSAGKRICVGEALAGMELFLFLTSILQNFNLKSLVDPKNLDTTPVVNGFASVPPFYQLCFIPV
Test: Cytochrome P450 family 2 subfamily C member 9 (CYP2C9) small molecule antagonists: luciferase biochemical (cell-free) qHTS assay (AID 1645842); further: nearly all actives have a fitted effect of over 55% in size
Conditions: P450-Glo CYP2C9 enzyme assay, luciferin luminescence; series mostly up to 57.4 µM
Inconclusive results are not listed. Calls of active or inactive are those of the source. Calls follow the shape of the dose curve; as a rule, active = well fitted inhibition curve with a large enough effect in the repeat runs; inconclusive = weak or mixed curves; inactive = no such curve, though single readings can be large or run the other way.
Possible outcomes: active, inactive

Compound	Assay Target	Group
O=S(=O)(O)c1ccc(O)cc1	Cytochrome P450 2C9 (Homo sapiens) (UniProt P11712)	inactive
O=C(Nc1cccc(C2=NCCN2)c1)Nc1cccc(C2=NCCN2)c1	Cytochrome P450 2C9 (Homo sapiens) (UniProt P11712)	inactive
NC(N)=NN=C(/C=C/c1ccc([N+](=O)[O-])o1)/C=C/c1ccc([N+](=O)[O-])o1	Cytochrome P450 2C9 (Homo sapiens) (UniProt P11712)	active
CCNC(=O)NCc1cccc(Cl)c1	Cytochrome P450 2C9 (Homo sapiens) (UniProt P11712)	inactive
COc1cc([C@H]2Oc3cc([C@H]4Oc5cc(O)cc(O)c5C(=O)[C@@H]4O)ccc3O[C@@H]2CO)ccc1O	Cytochrome P450 2C9 (Homo sapiens) (UniProt P11712)	active
C=C[C@H]1CN2CC[C@H]1C[C@@H]2[C@@H](O)c1ccnc2ccc(OC)cc12	Cytochrome P450 2C9 (Homo sapiens) (UniProt P11712)	inactive
CCC(C(=O)OCCOCCN(CC)CC)c1ccccc1 (stereo unspecified)	Cytochrome P450 2C9 (Homo sapiens) (UniProt P11712)	inactive
COc1ccc2c(c1)c1c3n2CCN(C)C3=NCC1	Cytochrome P450 2C9 (Homo sapiens) (UniProt P11712)	inactive
O=C(NC1CCN(CCc2c[nH]c3ccccc23)CC1)c1ccccc1	Cytochrome P450 2C9 (Homo sapiens) (UniProt P11712)	inactive
CC(=O)Nc1ccc(CC(=O)O)cc1	Cytochrome P450 2C9 (Homo sapiens) (UniProt P11712)	inactive
CCOc1ccccc1C(N)=O	Cytochrome P450 2C9 (Homo sapiens) (UniProt P11712)	inactive
CC1(C)OC[C@@H]2O[C@@]3(C(=O)O)OC(C)(C)O[C@H]3[C@@H]2O1	Cytochrome P450 2C9 (Homo sapiens) (UniProt P11712)	inactive
CN(C)CCN1C(=O)c2ccccc2N(C)c2ccccc21	Cytochrome P450 2C9 (Homo sapiens) (UniProt P11712)	inactive
C[C@H]1O[C@@H](O[C@H]2CC[C@@]3(C)[C@H](CC[C@@H]4[C@@H]3C[C@@H](O)[C@]3(C)[C@@H](C5=CC(=O)OC5)CC[C@]43O)C2)C[C@H](O)[C@@H]1O[C@H]1C[C@H](O)[C@H](O[C@H]2C[C@H](O)[C@H](O[C@@H]3O[C@H](CO)[C@@H](O)[C@H](O)[C@H]3O)[C@@H](C)O2)[C@@H](C)O1	Cytochrome P450 2C9 (Homo sapiens) (UniProt P11712)	inactive
CC(C)(C)NC[C@H](O)COc1cccc2c1CCCC2=O	Cytochrome P450 2C9 (Homo sapiens) (UniProt P11712)	inactive
CCN(CC)CCOc1ccc2c(c1)C(=O)c1cc(OCCN(CC)CC)ccc1-2	Cytochrome P450 2C9 (Homo sapiens) (UniProt P11712)	inactive
CCCCCN=C(N)N/N=C/c1c[nH]c2ccc(OC)cc12	Cytochrome P450 2C9 (Homo sapiens) (UniProt P11712)	inactive
CCN1/C(=C/C=C/c2sc3ccccc3[n+]2CC)Sc2ccccc21	Cytochrome P450 2C9 (Homo sapiens) (UniProt P11712)	active
NC(=O)C1(N2CCCCC2)CCN(CCCC(=O)c2ccc(F)cc2)CC1	Cytochrome P450 2C9 (Homo sapiens) (UniProt P11712)	inactive
Cn1c(=O)c2[nH]c(Br)nc2n(C)c1=O	Cytochrome P450 2C9 (Homo sapiens) (UniProt P11712)	inactive
NC(=S)N/N=C/c1cccnc1	Cytochrome P450 2C9 (Homo sapiens) (UniProt P11712)	inactive

---

System: JEG-3
Test: Primary qHTS to identify gynecologic anti-cancer compounds using libraries of approved drugs and bioactive compounds (AID 1345084); further: nearly all actives have a fitted effect of over 55% in size
Conditions: Gynecologic cancer cell panel viability, ATPlite luminescence, 48 h; series mostly up to 57.5 µM
Records with an inconclusive call do not appear. Activity calls are given as the source filed them. Calls follow the shape of the dose curve; as a rule, active = well fitted cell-killing curve with a large enough effect; inconclusive = small, poorly fitted or top-dose-only effect, or effect the other way; inactive = flat fitted curve, though single readings scatter.
Measured Attribute: activity change, negative = cytotoxicity

In [3]: df
Out[3]:
                                    molecule  assay_target  reported_measurement
 0             O=C(O)Cc1csc(-c2ccc(Cl)cc2)n1         JEG-3              inactive
 1  COC(=O)C(c1ccccc1Cl)N1CCc2sccc2C1 (stereo unspecified)         JEG-3              inactive
 2       CCOC(=O)c1c(N)sc2c1CCN(Cc1ccccc1)C2         JEG-3              inactive
 3  CCO[C@@H]1O[C@H](C(COCc2ccccc2)OCc2ccccc2)[C@H](OCc2ccccc2)[C@H]1O (stereo partly specified)         JEG-3              inactive
 4  OC1C(O)C(O)C(O)C(O)C1O (stereo unspecified)         JEG-3              inactive
 5  CCc1cc(Cl)c(OC)c(C(=O)NC[C@@H]2CCCN2CC)c1O         JEG-3              inactive
 6  O=C1[C@H](CC[C@H](O)c2ccc(F)cc2)[C@@H](c2ccc(O)cc2)N1c1ccc(F)cc1         JEG-3              inactive
 7         Cc1cc(CC(=O)O)c(C)n1-c1ccc(Cl)cc1         JEG-3              inactive
 8                O=C1C(O)=C(O)C(=O)C(O)=C1O         JEG-3              inactive
 9  C[N+]1(CC2COC(c3ccccc3)(C3CCCCC3)O2)CCCCC1 (stereo unspecified)         JEG-3              inactive
10  CCCCC(CC)CN1CN(CC(CC)CCCC)CC(C)(N)C1 (stereo unspecified)         JEG-3              inactive

---

Tested on: PA-1
Assay: Primary qHTS to identify gynecologic anti-cancer compounds using libraries of approved drugs and bioactive compounds (AID 1345084); further: nearly all actives have a fitted effect of over 55% in size
Settings: Gynecologic cancer cell panel viability, ATPlite luminescence, 48 h; series mostly up to 57.5 µM
Inconclusive results are not listed. Active and inactive are the calls of the source. The call rests on the fitted dose curve; in most records, active means well fitted cell-killing curve with a large enough effect; inconclusive means small, poorly fitted or top-dose-only effect, or effect the other way; inactive means flat fitted curve, though single readings scatter.
Outcome codes: True for active, False for inactive

>>> print(df.to_string())
                                    compound  group
 0  CC(C)(C)NCC(O)COc1cccc2c1C[C@H](O)[C@H](O)C2 (stereo partly drawn)  False
 1         COc1ccc(/C=N/NC(=O)c2ccncc2)cc1OC  False
 2          Cc1cccc(C)c1NC(=O)c1ccccc1C(=O)O  False
 3                  CNCCCCOc1ccccc1Cc1ccccc1  False
 4  CC(C(=O)O)c1cccc(Oc2ccccc2)c1 (stereo not drawn)  False
 5               CN(C)C(=O)Nc1ccc(Cl)c(Cl)c1  False
 6         Cc1cc(CC(=O)O)c(C)n1-c1ccc(Cl)cc1  False
 7                       c1ccc(CC2=NCCN2)cc1  False
 8                     NCc1ccccc1Sc1ccccc1CO  False
 9                        CC(=O)NCCCCCC(=O)O  False
10  CC1CCc2c(N3CCC(O)CC3)c(F)cc3c(=O)c(C(=O)O)cn1c23 (stereo not drawn)  False
11  NC(N)=NN=C(/C=C/c1ccc([N+](=O)[O-])o1)/C=C/c1ccc([N+](=O)[O-])o1   True
12  CC(CNC1CCCCC1)OC(=O)c1ccccc1 (stereo not drawn)  False
